Origin of values: PubChem BioAssay (NCI)

# System: DU-145 prostate
# METHOD DESCRIPTION: NCI tumour cell line growth inhibition, 48 h
Can you tell me TGI for the items I'm about to list?

Given the molecule "CC1=CC(C)=NN=C(N)N1S(=O)(=O)c1cc(C)c(Cl)cc1SCc1ccccc1" , what is its reported TGI?
> 100 µM

Item under review: Oc1ccc([C@H]2c3c(O)cc(O)cc3C3c4c(cc(O)cc4[C@@H]2[C@H]2c4cc(O)cc5c4C(c4cc(O)cc(O)c4[C@@H]2c2ccc(O)cc2)[C@@H](c2ccc(O)cc2)O5)O[C@@H]3c2ccc(O)cc2)cc1 (some centres undefined) . Reported TGI?
> 100 µM

Give the measured TGI of "CCCCCCCCCCCCCCCCCc1nccn1CCOCCO" .
10.4 µg/mL

Need TGI, item "NS(=O)(=O)c1nnc(NC(=O)C23CC4CC(CC(C4)C2)C3)s1"
> 100 µM
